B1: TRIM55 (parent)
chain: FQASNPYLPTRGGTTMASGGRFRC

Variants of: B1
protocol.description: protein stability index of a GFP-peptide fusion (GPS, HEK-293T) (PSI 1-6); higher = more stable;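 further: lentivirally expressed fusions sorted by FACS into six bins by GFP to DsRed ratio, PSI derived from sequencing read proportions per bin multiplied by bin number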
run.conditions: c terminus: a fixed tail appended
quantity.measured: protein stability index
# answer = number (no unit)

FQGSNPYLPTRGGTTMASGGRFRC [A3G] :: 1.95
FQASNPYLPTRGGTTMAAGGRFRC [S18A] :: 1.97
FQASNPYLPTRGGTTNASGGRFRC [M16N] :: 2.02
FQASNPYLPTRHGTTMASGGRFRC [G12H] :: 2.04

Q: Input FQASNPYLPTRGGTTTASGGRFRC [M16T] , output reported protein stability index.
Ans: 1.99
